B1: Zinc finger MYM-type protein 6, residues 427 to 504; numbered along this chain, O95789 (parent)
chain: KLKCQHCNHLFATKPELLFYKGKMFLFCGKNCSDEYKKKNKVVAMCDYCKLQKIIKETVRFSGVDKPFCSEVCKFLSA

variants of: B1; experiment: abundance fitness (aPCA) (normalised: wild type 0, dead -1); higher = more abundant; growth selection in yeast, the domain comes from the species named; settings: Homo sapiens
Label t for high-side abundance fitness (at or above -0.1) and f for low-side abundance fitness (below it).

Qu. Could you please find out whether `C28A` has abundance fitness that meets -0.1 or exceeds it?
Ans. f

Qu. What about this variant? `Y36A`
Ans. t

Qu. What about this variant? `F27E`
Ans. f

Qu. What about this variant? `N31Q`
Ans. t

Qu. What about this variant? `V72G`
Ans. t

Qu. What about this variant? `K53F`
Ans. t

Qu. What about this variant? `F61L`
Ans. t

Qu. What about this variant? `M45L`
Ans. f
